The values you see were collected from paper PMC8321398.

Assay: Metabolic stability in mouse hepatocytes
Format: in vitro ADME
Details: hepatocytes (suspension), pH 7.4, calculated from % remaining
readout label: half-life at 1 µM (h)
Give bare numbers, in h.

For record `CC(C)c1nc2cnc(-c3ccc(F)c(C(F)(F)F)c3)cn2c1-c1c(F)cc(O)cc1F` the listed half-life at 1 µM is 1.25

* * *

Assay: Plasma protein binding in mouse plasma at 10 uM, equilibrium dialysis
Assay type: in vitro ADME
Consider the following compounds; for each one, report its Mouse plasma protein %binding.
Answers are plain numbers, in %.

Give measured Mouse plasma protein %binding for every item shown.
1. CC(C)c1nc2cnc(-c3ccc(F)c(C(F)(F)F)c3)cn2c1-c1c(F)cc(O)cc1F [LSHTM-3520]
2. CC(C)c1nc2cnc(-c3ccc(F)c(C(F)(F)F)c3)cn2c1-c1ccc2[nH]ncc2c1F [LSHTM-3604]
3. Fc1c(-c2c(C(F)(F)F)nc3cnc(-c4cccc(C(F)(F)C(F)(F)F)c4)cn23)ccc2[nH]ncc12 [LSHTM-3608]
4. Fc1ccc(-c2cn3c(-c4ccc5[nH]ncc5c4F)c(C(F)(F)F)nc3cn2)cc1C(F)(F)F [LSHTM-3642]

Result:
99.97
99.9858
99.9195
99.9915

* * *

Consider the following molecules; for each one, report its remaining at 1.5 h, 1 µM.
Experiment: Metabolic stability in human hepatocytes
Format: in vitro ADME
Conditions: hepatocytes (suspension), pH 7.4, 90 min incubation, read-out: Human hepatocyte % remaining at 90 min
Give bare numbers, in %.

Consider the reported remaining at 1.5 h, 1 µM for these molecules:
For record `CC(C)c1cc(-c2cn3c(-c4ccc5[nH]ncc5c4F)c(C(F)(F)F)nc3cn2)ccc1F` the listed remaining at 1.5 h, 1 µM is 45

For record `CC(C)c1cc(-c2cn3c(-c4ccc5[nH]ncc5c4F)c(C4CC4)nc3cn2)ccc1F` the listed remaining at 1.5 h, 1 µM is 75

Give measured remaining at 1.5 h, 1 µM for every item shown.
1. Fc1ccc(-c2cn3c(-c4ccc5[nH]ncc5c4F)c(C(F)(F)F)nc3cn2)cc1C(F)(F)F
2. CC(C)Oc1cc(-c2cn3c(-c4ccc5[nH]ncc5c4F)c(C(F)(F)F)nc3cn2)ccc1F
3. CC(C)c1nc2cnc(-c3ccc(F)c(C(F)(F)F)c3)cn2c1-c1ccc2[nH]ncc2c1F
4. Fc1ccc(-c2cn3c(-c4ccc5[nH]ncc5c4F)c(C(F)(F)F)nc3cn2)cc1C(F)(F)C(F)(F)F
5. Fc1c(-c2c(C(F)(F)F)nc3cnc(-c4cccc(C(F)(F)C(F)(F)F)c4)cn23)ccc2[nH]ncc12

Result:
105
79
98
105
98

* * *

Consider the following compounds; for each one, report its remaining at 0.5 h, 1 µM.
Assay: Metabolic stability in mouse hepatocytes
Format: in vitro ADME
Conditions: hepatocytes (suspension), pH 7.4, 30 min incubation, read-out: Mouse hepatocyte % remaining at 30 min
Answers are plain numbers, in %.

For record `CC(C)c1nc2cnc(-c3ccc(F)c(C(F)(F)F)c3)cn2c1-c1ccc2[nH]ncc2c1F` the listed remaining at 0.5 h, 1 µM is 89

Attention now turns to another entry.
For record `CC(C)c1nc2cnc(-c3ccc(F)c(C(F)(F)F)c3)cn2c1-c1c(F)cc(O)cc1F` the listed remaining at 0.5 h, 1 µM is 65
